Values were extracted from BindingDB's records for doi:10.1021/jm990309x.

- TARGET_ENTITY: Bile salt-activated lipase (Sus scrofa)
- TEST_DETAILS: Inhibition of the Pancreatic Cholesterol Esterase from porcine
VALUE_TYPE: Ki (nM)
Give just the number in nM; leave the unit off.

q: Query (compound): O=c1oc(Cl)ccc1CCC1CCCCC1 ; field requested: Ki
a: 25

q: Report Ki for O=c1oc(Cl)ccc1CC1CCCCC1 [6-Chloro-3-cyclohexylmethyl-pyran-2-one] please.
a: 2200

q: Entry O=c1oc(Cl)ccc1CCCC1CCCCC1 : reported Ki = ?
a: 60
